test system: HS 578T breast; assay: NCI-60 one-dose screen, 48 h; details: 10 µM unless noted
Compounds without any hit were thinned out: in the full panel of roughly 83,000, 20% have a hit. The source made the active and inactive calls. How the source made its calls: active means growth percent below 10; inactive means the rest.
Please state which outcome applies, choosing from True = active, False = inactive

Solved entries (count: 2):
INSERT INTO measurements (compound, label_value) VALUES
  ('N#CSCC1CC(O)(c2ccccc2)CC(c2ccc(F)cc2)O1 (stereo unspecified)', 'True'),
  ('C[PH+](c1nc2ccccc2nc1[PH+](C)C(C)(C)C)C(C)(C)C.C[PH+](c1nc2ccccc2nc1[PH+](C)C(C)(C)C)C(C)(C)C.[Au+].[Cl-] (stereo unspecified)', 'True');

Req: Entry `COc1cccc(CNc2ccc3ncnc(Nc4ccc(F)c(Cl)c4)c3c2)c1` : call = ?
Resp: False

Req: What do we get for `COc1ccc(C2=C(Nc3ccc(C(=O)Nc4ccccc4)cc3)C(=O)N(C)C2=O)cc1` ?
Resp: False

Req: What do we get for CCCCCCCCCCC(CN(CC)CC)C(O)c1ccccc1 (stereo unspecified) ?
Resp: False

Req: What do we get for `CCCOC(=O)Nc1nc2ccc(SCC(C)C)cc2s1` ?
Resp: False

Req: What do we get for `O=C(Nc1ccc(Oc2cccc(Cl)c2)c(Cl)c1)c1cnccn1` ?
Resp: False

Req: What do we get for `O=C1C(=O)N(Cc2ccc(-c3ccccc3)cc2)c2ccc(OC(F)(F)F)cc21` ?
Resp: False

Req: What do we get for `COc1ccccc1N1CCCCC1` ?
Resp: False

Req: What do we get for CC(C)=CCCC(C)c1ccc(C)c2c1OCN(CCCCCO)C2 (stereo unspecified) ?
Resp: False

Req: What do we get for `CCSC(SCC)c1ccc(Cl)cc1` ?
Resp: False

Req: What do we get for `O=C(Nc1nc2ccccc2s1)c1ccc(F)cc1` ?
Resp: False

Req: What do we get for `CCCC/C(CC)=N\NS(=O)(=O)c1ccc([N+](=O)[O-])cc1` ?
Resp: False

Req: What do we get for `O=C(N(c1ccccc1)c1ccccc1)n1cc(I)c2nc(Cl)nc(Cl)c21` ?
Resp: False

Req: What do we get for `CC1(C)COB(OCC(C)(C)COB2OCC(C)(C)CO2)OC1` ?
Resp: False

Req: What do we get for `c1ccc(-c2oc(-c3ccccc3)c(CN3CCCCC3)c2CN2CCCCC2)cc1` ?
Resp: False

Req: What do we get for `O=C1/C(=C\c2ccc3nccnc3c2)SC(=S)N1CCc1ccc(O)cc1` ?
Resp: False

Req: What do we get for `O=C1/C(=C/c2cccc(F)c2)CN(C(=O)C(Cl)Cl)C/C1=C\c1cccc(F)c1` ?
Resp: True

Req: What do we get for `O=C(CN1C(=O)S/C(=C\c2ccccc2)C1=O)Nc1ncc(Cc2ccccc2Cl)s1` ?
Resp: False

Req: What do we get for `CC(C)=CC(=O)OCC(=O)O[C@@H]1C[C@]2(C(C)C)O[C@@]1(C)[C@@H]1CC[C@@H](C)[C@H]1[C@@H]2OC(=O)/C=C/c1ccccc1` ?
Resp: True

Req: What do we get for `CSc1nnc(-c2cc3c([nH]c4ccccc43)c(-c3cccc(O)c3)n2)n1-c1ccccc1` ?
Resp: False

* * *

test system: SF-295 CNS; experiment: NCI-60 one-dose screen, 48 h (100 = growth as untreated, 0 = no growth, -100 = all killed); details: 10 µM unless noted
About 83,000 compounds went through this panel and 20% of them were active in at least one assay; those are over-represented in the sample as a whole.
Measure Name: growth (%)
Just the number please, in %, no unit attached.

INSERT INTO measurements (smiles, units_symbol, result_value) VALUES
  ('NS(=O)(=O)c1ccccc1NC(=O)Nc1nc2ccccc2s1', '%', 94.6),
  ('CC(C)Cn1cnc2c(=O)[nH]c(N)nc21', '%', 99.2),
  ('Cc1ccc(NC(=O)Cn2cc(CN3CCN(c4ccnc5cc(Cl)ccc45)CC3)nn2)cc1', '%', 86.3),
  ('CCCC/C=C/[C@@H]1C[C@H]1CCO', '%', 98.2);

Req: Need growth, item `Cc1ccc(-c2nc(N3CCCNCC3)c3oc(-c4ccccc4)nc3n2)cc1`
Resp: -89.6

Req: What do we get for `COC(=O)[C@@H](CCCCNC(=O)[C@]12CCC(C)(C)C[C@@H]1C1=CC[C@@H]3[C@@]4(C)C/C(=C/c5ccco5)C(=O)C(C)(C)[C@@H]4CC[C@@]3(C)[C@]1(C)CC2)NC(=O)[C@]12CCC(C)(C)C[C@@H]1C1=CC[C@@H]3[C@@]4(C)C/C(=C/c5ccco5)C(=O)C(C)(C)[C@@H]4CC[C@@]3(C)[C@]1(C)CC2` ?
Resp: 101

Req: What do we get for `CSc1nnc(-c2cc3c([nH]c4ccccc43)c(-c3cccc(O)c3)n2)n1-c1ccccc1` ?
Resp: 24.8

Req: What do we get for `Cc1cc(N2CCN(CC(=O)Nc3ccc4c(ccn4C)c3)CC2)nc(N2CCCCCC2)n1` ?
Resp: 98.9

* * *

system: HCC-2998 colon; assay: NCI-60 one-dose screen, 48 h (100 = growth as untreated, 0 = no growth, -100 = all killed); conditions: 10 µM unless noted
Compounds without any hit were thinned out: in the full panel of roughly 83,000, 20% have a hit.
Is growth at least 40%? Then 1 (yes). If not, 0 (no).

INSERT INTO measurements (compound, label_value) VALUES
  ('NC(=O)c1c(NC(=O)c2ccc3ccccc3c2)sc2c1CCC(=O)C2', '1 (yes)');

Here is another compound to look at.
Req: Evaluate `N=C(N)c1ccc(-c2ccc(-c3ccc(Cl)c(Cl)c3)s2)nc1` : growth at minimum 40%?
Resp: 0 (no)

* * *

test system: HS 578T breast; test: NCI-60 one-dose screen, 48 h; conditions: 10 µM unless noted
About 83,000 compounds went through this panel and 20% of them were active in at least one assay; those are over-represented in the sample as a whole. Calls of active or inactive are those of the source. The calls were made as follows: active = growth percent below 10; inactive = the rest.
Please state which outcome applies, choosing from active, inactive

INSERT INTO assay_data (compound, label_value) VALUES
  ('O=c1c2cccc3c(N4CCCC4)ccc(c32)c2nc3ccccc3n12', 'inactive'),
  ('O=C(O)CCN1C(=O)/C(=C/C(Cl)=C/c2ccccc2)SC1=S', 'inactive'),
  ('COc1ccc(-c2cc(-c3ccc(Cl)cc3)c(C#N)c(=O)n2Cc2ccc(C(=O)Nc3ccccc3N)cc2)cc1', 'inactive'),
  ('CC(C)COc1nc2c(c(=O)n(C)c(=O)n2C)n1C', 'inactive'),
  ('CN(C)CC(C)(C)C(=O)/C=C/c1ccccc1', 'active');

Req: Entry `COc1ccc(-c2nc3c(ncc4ccc(=O)[nH]c43)s2)cc1` : call = ?
Resp: inactive

Req: What do we get for `COc1ccc(C(C)=O)cc1S(=O)(=O)Nc1c(N)nc(SC)[nH]c1=O` ?
Resp: inactive

Req: What do we get for CCCCCCC12CCC(=O)N1CCc1cncn12 (stereo unspecified) ?
Resp: inactive

* * *

This section presents molecules with their documented growth values.
tested on: NCI-H522 lung; experiment: NCI-60 one-dose screen, 48 h (100 = growth as untreated, 0 = no growth, -100 = all killed); conditions: 10 µM unless noted
The panel holds about 83,000 compounds, 20% with a hit somewhere; the sample as a whole holds those more often.
Just the number please, in %, no unit attached.

The following molecules have reported results that may help.
INSERT INTO results (molecule, measure_name, result_value) VALUES
  ('O=C(/C=C/c1cccs1)Nc1ncc(Cc2ccccc2F)s1', 'growth', 6.23),
  ('O=C(Nc1ccccc1)Nc1ncnc2c1ncn2-c1ccc(Cl)cc1', 'growth', 85.4),
  ('Cc1nc2sc(C(=O)Nc3cccc(Br)c3)c(N)c2cc1C(O)c1ccccc1 (stereo unspecified)', 'growth', 9.66);

Req: Need growth, item `COC(=O)c1nc(-c2ccc(C)cc2)oc1S(=O)(=O)c1cccc(OC)c1`
Resp: 33.8

Req: What do we get for NC(Cc1ccc(O)c([N+](=O)[O-])c1)C(=O)O (stereo unspecified) ?
Resp: 94.7

Req: What do we get for `CC(=O)Oc1ccc(C)cc1C` ?
Resp: 101

* * *

tested on: TK-10 renal; experiment: NCI-60 one-dose screen, 48 h; settings: 10 µM unless noted
About 83,000 compounds went through this panel and 20% of them were active in at least one assay; those are over-represented in the sample as a whole. Activity calls are given as the source filed them. How the source made its calls: active means growth percent below 10; inactive means the rest.
Please state which outcome applies, choosing from active, inactive

INSERT INTO results (compound, label_value) VALUES
  ('Nc1n[nH]c2ccc([C@H]3[C@@H]4C5CCC(C5)[C@@H]4c4c(ccc5[nH]ncc45)N3S(=O)(=O)C3CC3)cc12 (some centres undefined)', 'inactive'),
  ('O=C(/C=C(/C=C/c1ccc2[nH]ccc2c1)OB(F)F)/C=C/c1ccc2[nH]ccc2c1', 'active'),
  ('Cc1cc(=O)oc2cc(OCc3nn4c(Nc5nc6ccccc6s5)c(-c5ccccc5)nc4s3)ccc12', 'inactive'),
  ('O=C(CN1C(=O)NC2NC(=O)NC21)N/N=C/c1ccccc1[N+](=O)[O-] (centres undefined)', 'inactive'),
  ('N=C(N)c1ccc(-c2ccc(-c3ccc(Cl)c(Cl)c3)s2)nc1', 'inactive'),
  ('CCCCCCCCCc1ccc(OCCOCCOCCOCCOCCOCCOCCOCCOCCO)cc1', 'inactive'),
  ('CCCCNC(=O)Oc1ccc(/C(=C(/C)Cc2ccc(OC)cc2)c2ccc(OCCN3CCCC3)cc2)cc1', 'inactive'),
  ('O=C(C[C@]1(O)C(=O)Nc2ccccc21)c1cccc(C(F)(F)F)c1', 'inactive');

Here is another compound to look at.
Req: Entry `CCSc1oc(-c2ccccc2)nc1[P+](c1ccccc1)(c1ccccc1)c1ccccc1` : call = ?
Resp: inactive

The origin of these recorded values is PubChem BioAssay (NCI).
